- Assayed target: Short transient receptor potential channel 6 (Mus musculus)
- Assay remarks: mouse TRPC6 channel activators, primary screen, cell-based, HEK293, membrane potential dye (AID 2550);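 further: higher score means more depolarization so channel activation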
- Applied conditions: HEK293-TRPC6 membrane potential dye fluorescence, at 10 µM
In all, about 310,000 compounds went through this assay and about 380 (0.12%) were called active.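 How the source made its calls: active means B-score of the integrated fluorescence ratio above library mean plus 3 SD, and starting fluorescence ratio within library mean plus 5 SD; inactive means the rest.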 The list comes from a sample in which actives are over-represented; it also holds close analogues and randomly drawn compounds.
Outcome codes: label 1 for active, label 0 for inactive

compound="CC(=O)Nc1ccc(NC(=O)COc2ccc(S(=O)(=O)NC(C)c3ccccc3)cc2)cc1 (stereo unspecified)" label_value="label 0"
compound=CCCCc1c(O)nc2n(c1=O)CCS2 label_value="label 0"
compound=CCOc1ccc(S(=O)(=O)N2CCC(C(=O)NCc3ccccn3)CC2)cc1Cl label_value="label 0"
compound="CCc1ccc(C2C(C#N)=C(N)N(N3CCOCC3)C3=C2C(=O)CC(C)(C)C3)s1 (stereo unspecified)" label_value="label 0"
compound=CN(C)c1ccnc2sc(C(=O)c3ccccc3)c(N)c12 label_value="label 0"
compound="CC(NC(=O)CNC(=O)Cc1cccc2ccccc12)c1ccc(S(N)(=O)=O)cc1 (stereo unspecified)" label_value="label 0"
compound="CC(C)(C)n1nnnc1C(c1ccc(Cl)cc1)N1CCSCC1 (stereo unspecified)" label_value="label 0"
compound="CN(C)C(CNC(=O)c1ccc(S(=O)(=O)NCc2ccco2)cc1)c1ccccc1 (stereo unspecified)" label_value="label 0"
compound=CCN(CC)CCNCc1ccc(OCc2ccc(Cl)nc2)c(OC)c1 label_value="label 0"
compound=Cc1ccc(NC(=O)c2sc3nc(N)c(C#N)cc3c2N)cc1 label_value="label 0"
compound=Nc1c(C(=O)c2cccs2)sc2nsc(SCCN3CCCCC3)c12 label_value="label 1"
compound="CCn1ccnc1CN1CCCC(C(=O)c2ccc3c4c(cccc24)CC3)C1 (stereo unspecified)" label_value="label 0"
compound=O=C(NCCNc1ccccc1[N+](=O)[O-])c1ccccc1F label_value="label 0"
compound=Cc1ccc(NC(=O)C2CCN(S(=O)(=O)c3ccc4c(c3)NC(=O)CO4)CC2)cc1C label_value="label 0"
compound="COc1ccccc1N1CCN(C(=O)c2ccc(NC3=NC4CS(=O)(=O)CC4S3)cc2)CC1 (stereo unspecified)" label_value="label 0"
compound=CC(=O)c1c(C)[nH]c(C(=O)N2CCN(S(=O)(=O)c3ccc(F)c(F)c3)CC2)c1C label_value="label 0"
compound=CNc1nc(Nc2ccc(C)c(Cl)c2)nc(N)c1[N+](=O)[O-] label_value="label 0"
compound=FC(F)(F)c1cccc(-c2cc3ccccc3nc2N2CCCC2)c1 label_value="label 0"
compound="CCOCCCN1C(=O)C2C(C(=O)Nc3ccc(OCC)cc3)C3C=CC2(O3)C1C(=O)NC1CCCCC1 (stereo unspecified)" label_value="label 0"
compound="CCOC1CCCCC1NS(=O)(=O)c1ccc(Cl)cc1 (stereo unspecified)" label_value="label 0"
compound=CCOC(=O)c1sc2nc(C)[nH]c(=O)c2c1C label_value="label 0"
compound="CC(NCc1ccccc1OC1CCCC1)c1ccccc1 (stereo unspecified)" label_value="label 1"
compound=OCc1nc(CO)n(Cc2ccccc2)n1 label_value="label 0"
compound="CCC1OC(c2ccc([N+](=O)[O-])cc2)=Nc2ccccc21 (stereo unspecified)" label_value="label 0"
compound=CC(=O)c1ccc(N2CCN(S(=O)(=O)c3c(C)[nH]c(=O)[nH]c3=O)CC2)cc1 label_value="label 0"
compound="O=C(CC1C(=O)NCCN1C(=O)c1ccc([N+](=O)[O-])cc1)Nc1cccc(Cl)c1 (stereo unspecified)" label_value="label 0"
compound="COc1ccc2oc(C(=O)NCC(Cc3ccccc3)N(C)C)c(C)c2c1 (stereo unspecified)" label_value="label 0"
compound=CC(=O)N1N=C(c2ccncc2)OC1(Cc1ccccc1)Cc1ccccc1 label_value="label 0"
compound=COc1cc(CNCCN(C)C)ccc1OCc1c(F)cccc1Cl label_value="label 1"
compound=COC(=O)CNc1nc(Cl)nc(N2CCC(C)CC2)n1 label_value="label 0"
compound="C=CCN1C(=NC(=O)COc2ccccc2)SC2CS(=O)(=O)CC21 (stereo unspecified)" label_value="label 0"
compound=O=C(Nc1ccc(N2CCCC2=O)cc1)c1cncc(Br)c1 label_value="label 0"
compound=CCN(CC)C(=O)N1CCN(C(=O)c2ccc(C)cn2)CC1 label_value="label 0"
compound=CCN(CC(=O)NCc1ccc(Cl)cc1)C(=O)CSc1ccccc1 label_value="label 0"
compound=Cc1ccc(-c2csc(NCCc3nc4cc(Cl)c(Cl)cc4n3CCOCCO)n2)cc1 label_value="label 0"
compound="CC(C)(C)n1nnnc1C(c1ccc2ncccc2c1)N1CCSCC1 (stereo unspecified)" label_value="label 1"

// provenance: PubChem BioAssay AID2550
